# Tested on: M14 melanoma
# ASSAY_PROTOCOL: NCI-60 one-dose screen, 48 h
# MEASUREMENT_CONDITIONS: 10 µM unless noted
About 83,000 compounds went through this panel and 20% of them were active in at least one assay; those are over-represented in the sample as a whole. Activity calls are given as the source filed them. The calls were made as follows: active = growth percent below 10; inactive = the rest.
The reply should name one outcome from 1 = active, 0 = inactive

I would be grateful if you could indicate the recorded call for COc1cc(NCC(=O)Nc2cc(Nc3cccc(C(F)(F)F)c3)ncn2)c(Cl)c(OC)c1Cl .
0

I would be grateful if you could indicate the recorded call for CCCCCCC/C=C/[C@H]1O[C@]23C(=O)C[C@@]4(C[C@@H](OC5OC(CO)C(O)C(O)C5O)C[C@@H]4[C@H]2C=C1C)OC3=O (some centres undefined) .
1

I would be grateful if you could indicate the recorded call for OCCNc1nc(NCCO)nc(Nc2ccc(C3=NN(c4ccc(Cl)cc4)C(c4ccc(Cl)cc4)C3)cc2)n1 (centres undefined) .
0

I would be grateful if you could indicate the recorded call for Nc1ccc2c(c1)C(=O)C(=O)c1c-2nc2ccccn12 .
1

I would be grateful if you could indicate the recorded call for Fc1ccc(N/N=C/c2ccc(-n3cccn3)cc2)cc1 .
0

I would be grateful if you could indicate the recorded call for CC1(C)CC[C@]2(c3nnc(-c4ccncc4)o3)CC[C@]3(C)C(=CC[C@@H]4[C@@]5(C)CCC(=O)C(C)(C)[C@@H]5CC[C@]43C)[C@@H]2C1 .
0

I would be grateful if you could indicate the recorded call for C=C1C(=O)O[C@H]2[C@H]1CC/C(COC(=O)N1CCC[C@H]1C(=O)Nc1ccc(OC)c(C(N)=O)c1O)=C\CC[C@@]1(C)O[C@@H]21 .
0

I would be grateful if you could indicate the recorded call for Cc1ccc(C2CC(c3ccc(Nc4nc(NCCO)nc(NCCO)n4)cc3)=NN2c2ccc(Cl)cc2)cc1 (centres undefined) .
0

I would be grateful if you could indicate the recorded call for O=C(NCc1ccccc1)c1ccc2c(c1)NC(=O)[C@@H]1CCCN21 .
0
